Tested on: CLK3;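 also: kd values determined as follow-up on hits from a single-replicate KINOMEscan panel screen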
ASSAY_METRIC: Kd

• Nc1nc(-c2cccnc2)c(-c2ccnc3ccccc23)s1 = > 10 µM

* * *

System: NEK3
COND: concentration: 1 μM, replicates: in singlicate; n = 1
Given measured %Inh, output 1 if it is greater than or equal to 9% and 0 if not.

* CC(C)N1CCC(n2cnc(-c3ccc(F)cc3)c2-c2ccnc(N)n2)CC1 [SB-223132] | 1
* c1ccc(-c2ccc3c(-c4ccnc(Nc5ccc6c(c5)OCCO6)n4)cnn3n2)cc1 [GW818941] | 0
* COc1ccc(Nc2nccc(N3CCC(NC(=O)Nc4ccc5c(c4)OCO5)C3)n2)cc1 (centres unmarked) [GSK1379745] | 0
* Fc1ccc(Nc2nccc(-c3c(-c4ccc(Cl)cc4)nn4ncccc34)n2)cc1F [GW829058] | 1
* Cl.O=S(=O)(c1cccc(F)c1)c1ccc(Nc2ncnc3cc(Br)sc23)cc1Cl [GSK306886] | 0
* Nc1nc(-c2ccccn2)c(-c2ccnc3ccccc23)s1 [GW548057] | 0
* Cl.Cl.c1ccc(-c2cc3ccncc3cc2OC2CCNCC2)cc1 [GSK1122999] | 0

* * *

Test system: PAK3
COND: concentration: 1 μM, replicates: in singlicate; n = 1
ASSAY_METRIC: %Inh (%)

• CC(C)(C)OC(=O)NC1CCCN(c2cc(-c3ccc4c(N)n[nH]c4c3)nc(N)n2)C1 (stereo not drawn) = 0
• COc1cc2c(Nc3cccc(NC(=O)c4ccccc4)c3)ncnc2cc1OCCCN1CCOCC1 = 5
• CNc1nccc(-c2c(-c3ccc(F)cc3)ncn2C2CCN(C)CC2)n1 = 0
• COc1ccc(NC(=O)c2ccc(-c3cc(-c4nnc(C)o4)ccc3C)cc2)cc1 = 0
• Clc1cccc(-c2nc(Nc3ccncc3)c3ccccc3n2)c1 = 37
• COc1ccc(-c2nc3n(c2-c2ccncc2)CCC3)cc1 = 0
• Fc1ccc(Nc2nccc(-c3c(-c4ccc(Cl)cc4)nn4ncccc34)n2)cc1F = 15
• O=C(Nc1ccccc1)Nc1ccc(Oc2ccc3nccn3n2)cc1 = 0
• CCCc1ccc(S(=O)(=O)NC2CCN(c3ccnc(Nc4ccc(OC)cc4)n3)C2)cc1 (stereo not drawn) = 100

* * *

Test system: YANK2
Construct: gene STK32B
COND: concentration: 1 μM, replicates: in singlicate; n = 1
ASSAY_METRIC: %Inh (%)

• N#Cc1ccc(Oc2ccc(Nc3ncnc4cc[nH]c34)cc2Cl)cc1 = 22
• O=c1cc(N2CCOCC2)nc2n(Cc3cccc(Cl)c3)ccn12 [GSK2296823] = 0
• CC(C)N1CCC(n2cnc(-c3ccc(F)cc3)c2-c2ccnc(N)n2)CC1 [SB-223132] = 16
• c1ccc(-c2ccc3c(-c4ccnc(Nc5ccc6c(c5)OCCO6)n4)cnn3n2)cc1 [GW818941] = 13
• Nc1nc(-c2ccc3c(N)n[nH]c3c2)cc(N2CCCCC2)n1 [GSK2228768] = 0

* * *

Test system: RIPK5
COND: concentration: 1 μM, replicates: in singlicate; n = 1
Here, each record is paired with measured %Inh data.
ASSAY_METRIC: %Inh (%)

• Fc1cccc(COc2ccc(Nc3ncnc4nn5ccccc5c34)cc2Cl)c1 [GW689066] = 0
• CSc1nn2c(=O)cc(N3CCOCC3)nc2n1Cc1cccc(Cl)c1Cl [GSK2347225] = 0
• Cn1ccc2ncnc(Nc3ccc(Oc4cccc(Cl)c4)c(Cl)c3)c21 = 40
• COc1ccc(Nc2nccc(N3CCC(NC(=O)c4cccc(NC(C)=O)c4)C3)n2)cc1 (stereo not shown) [GSK1379732] = 0
• FC(F)(F)c1ccc(-c2cc(-c3c[nH]nc3-c3ccccn3)ccn2)cc1 [GW599550] = 0
• Fc1cccc(COc2ccc(Nc3ncnc4sc(-c5ccc[nH]5)cc34)cc2Cl)c1 [GW707818] = 16
• Nc1nccc2scc(-c3ccc4c(c3)CCN4C(=O)Cc3cc(F)ccc3F)c12 [GSK2587663] = 0
• N#Cc1ccc(Oc2ccc(Nc3ncnc4cc[nH]c34)cc2Cl)cc1 = 6
• CNc1nccc(-c2c(-c3ccc(F)cc3)ncn2C2CCN(C)CC2)n1 [SB-222903] = 2
• Cl.Cl.c1ccc(-c2cc3ccncc3cc2OC2CCNCC2)cc1 [GSK1122999] = 1
• NC(=O)c1sc(-n2cnc3ccccc32)cc1OCc1ccccc1F [GSK1024306] = 0
• Cc1ccc(NC(=O)c2cccc(C#N)c2)cc1-c1ccc(C(=O)Nc2ccncc2)cc1 [GSK1398463] = 8
• COc1ccc(NC(=O)Nc2ccc(C)c(-c3ccc(C(=O)Nc4ccncc4)cc3)c2)cc1 [GSK1398475] = 0
• CNc1nccc(-c2c(-c3ccc(F)cc3)ncn2CCCN2CCOCC2)n1 [SB-222516] = 0
• Cn1ccc2ncnc(Oc3ccc(NC(=O)Nc4cccnc4)c(Cl)c3)c21 = 19
• Cc1ccc(C)c(NC(=O)NCCNc2ccnc(Nc3ccc(F)cc3)n2)c1 [GSK1379878] = 9
• CSc1ccc(NC2=C(c3ccccc3Cl)C(=O)NC2=O)cc1 [SB-342411] = 0
• Cc1cccc(-c2nc(Nc3ccc4[nH]nnc4c3)c3ccccc3n2)n1 [GW867587] = 0
• COc1ccc(Nc2nccc(N3CCC(NC(=O)Nc4ccc5c(c4)OCO5)C3)n2)cc1 (stereo not shown) [GSK1379745] = 0
• Cc1ccc(O)cc1Nc1cc(C(F)(F)F)nc2ccc(-c3ccncc3)cc12 [GW630823] = 15
• Nc1nc(-c2ccc3c(N)n[nH]c3c2)cc(N2CCCCC2)n1 [GSK2228768] = 0
• CS(=O)(=O)CCNCc1ccc(-c2ccc3ncnc(Nc4ccc(OCc5ccccc5)c(Cl)c4)c3c2)o1.Cl [GW574783] = 0
• O=C(c1ccc(-c2cc(-c3c[nH]nc3-c3ccccn3)ccn2)cc1)N1CCCC1 [GW792479] = 0
• CC(C)(C)c1ccc(-n2cnc3c(N)ncnc32)cc1 [SKF-97263] = 14
• Fc1ccc(Nc2nccc(-c3c(-c4ccc(Cl)cc4)nn4ncccc34)n2)cc1F [GW829058] = 37

* * *

Tested on: PLK1
COND: concentration: 1 μM, replicates: in singlicate; n = 1
ASSAY_METRIC: %Inh (%)

- CCC(CC)(CC)n1cnc2c(N)ncnc21: 45
- Cl.Cl.c1ccc(-c2cc3ccncc3cc2OC2CCNCC2)cc1: 5
- Oc1ccc2ncnc(Nc3ccc(OCc4ccccc4)cc3)c2c1: 0

* * *

Tested on: PDGFRB
COND: concentration: 1 μM, replicates: in singlicate; n = 1
Class field: derived from %Inh; ranges bottom: < 9%; middle: ≥ 9% and < 20%; top: ≥ 20%

• O=C(CCO)NCCn1ccc2ncnc(Nc3ccc(Oc4cccc(C(F)(F)F)c4)c(Cl)c3)c21 = bottom
• CN1c2ccc(-c3ccc(C(=O)NCCO)cc3)cc2-c2[nH]ncc2S1(=O)=O = middle
• C[C@@H]1CCN(C(=O)CO)C[C@@H]1N(C)c1ncnc2[nH]ccc12 = middle
• COc1cc2c(Nc3cccc(NC(=O)c4ccccc4)c3)ncnc2cc1OCCCN1CCOCC1 = top
• CS(=O)(=O)CCNCc1ccc(-c2ccc3ncnc(Nc4ccc(OCc5ccccc5)c(Cl)c4)c3c2)o1.Cl = middle
• Nc1nc(-c2ccc3c(N)n[nH]c3c2)cc(N2CCCCC2)n1 = bottom
• Cc1ccc(NC(=O)c2cccc(C#N)c2)cc1-c1ccc(C(=O)Nc2ccncc2)cc1 = top
• Fc1cccc(COc2ccc(Nc3ncnc4sc(-c5ccc[nH]5)cc34)cc2Cl)c1 = middle
• COc1ccc(Nc2nccc(N3CCC(NC(=O)Nc4ccc5c(c4)OCO5)C3)n2)cc1 (centres unmarked) = top
• O=c1cc(N2CCOCC2)nc2n(Cc3cccc(Cl)c3)ccn12 = middle
• C[C@H]1CC[C@@H](C(=O)Nc2ccccc2)CN1c1cc(-c2ccc3c(N)n[nH]c3c2)nc(N)n1 = middle
• Cc1cc(N2CCC(NS(=O)(=O)c3ccc(F)cc3)CC2)nc(Nc2cccc(C#N)c2)n1.O=C(O)C(F)(F)F = bottom
• FC(F)(F)c1cc(Nc2nccc(-c3c(-c4ccc(Cl)cc4)nn4ncccc34)n2)ccc1Cl = bottom
• Cl.c1ccc(Cn2ccc3cc(Nc4ncnc5ccccc45)ccc32)cc1 = top
• CC(C)(C)OC(=O)NC1CCCN(c2cc(-c3ccc4c(N)n[nH]c4c3)nc(N)n2)C1 (centres unmarked) = middle
• O=C(Nc1ccccc1F)NC1CCN(c2ccnc(Nc3ccc(F)cc3)n2)C1 (centres unmarked) = bottom

* * *

System: CSNK2A2
COND: concentration: 1 μM, replicates: in singlicate; n = 1
Given measured %Inh, output Condition met if it is greater than or equal to 20% and Condition not met if not.

• CSc1nn2c(=O)cc(N3CCOCC3)nc2n1Cc1cccc(Cl)c1Cl [GSK2347225] = Condition met
• CC(C)(C)OC(=O)NC1CCCN(c2cc(-c3ccc4c(N)n[nH]c4c3)nc(N)n2)C1 (stereo not drawn) [GSK2286096] = Condition not met
• COC(=O)c1c(-c2ccccc2)c2cc(Cl)ccc2c(=O)n1Cc1ccc(S(C)(=O)=O)cc1 = Condition met
• FC(F)(F)c1ccc(-c2cc(-c3c[nH]nc3-c3ccccn3)ccn2)cc1 [GW599550] = Condition met
• Nc1n[nH]c2nnc(-c3ccccc3)cc12 [SB-517389] = Condition not met
• Fc1cccc(COc2ccc(Nc3ncnc4cc[nH]c34)cc2Cl)c1 = Condition met
• COc1ccc(-c2oc3ncnc(N)c3c2-c2ccc(OC)cc2)cc1 [SB-589132] = Condition met
• Oc1ccc2ncnc(Nc3ccc(OCc4ccccc4)cc3)c2c1 [GI262866] = Condition not met
• N#Cc1ccc(Oc2ccc(Nc3ncnc4cc[nH]c34)cc2Cl)cc1 = Condition met
